molecular target: DNA polymerase beta (Homo sapiens) (UniProt P06746); assay: qHTS Assay for Inhibitors of DNA Polymerase Beta; conditions: Pol beta primer extension/strand displacement, fluorescence kinetic; series mostly up to 114 µM; also: potency is read from the fitted curve at half-maximal effect
Screen size: about 340,000 compounds; about 4,500 (1.3%) were called active. Inconclusive results (about 5%) are left out. Many of the other results were omitted from the sample, so actives are more common in it than they were.
Measured metric: Potency

Study these solved cases before continuing.
>  <Compound>
O=C(Nc1nnc(Cc2ccc(Cl)cc2)s1)c1cccnc1

>  <Readout value>
22.4 µM (active)

$$$$
>  <Compound>
COc1ccc(N2CCN(C(=O)CSCc3nc(-c4ccccc4Cl)oc3C)CC2)cc1

>  <Readout value>
inactive

$$$$
>  <Compound>
CCOCCn1c(C(C)C)nc2ccccc21

>  <Readout value>
inactive

$$$$
>  <Compound>
Cc1nnc(NC(=O)CSc2nc3c([nH]c4ccccc43)c(=O)n2-c2cccc(Cl)c2)s1

>  <Readout value>
inactive

$$$$
>  <Compound>
COc1ccc(S(=O)(=O)NCC(c2ccc(N(C)C)cc2)N2CCCC2)cc1 (configuration not stated)

>  <Readout value>
inactive

$$$$

Q: Give a short answer stating reported Potency for Cc1ccc(Cl)cc1NC(=O)Cc1ccc(-n2c(C)nc3cccnc32)cc1 .
A: inactive

Q: Give a short answer stating reported Potency for NC(=O)c1ccc(NC(=O)COC(=O)c2ccc([N+](=O)[O-])cc2)cc1 .
A: inactive

Q: Give a short answer stating reported Potency for CC(C)c1ccc(S(=O)(=O)Nc2ccc(O)c(Sc3nc4ccccc4s3)c2)cc1 .
A: inactive

Q: Give a short answer stating reported Potency for CCc1nc2ccccc2n(CCOCCOCCn2c(=O)c(CC)nc3ccccc32)c1=O .
A: 35.5 µM (active)

Q: Give a short answer stating reported Potency for CCn1cc2nc(SCc3ccccc3Cl)n(CCc3ccccc3)c(=O)c2n1 .
A: inactive

Q: Give a short answer stating reported Potency for Cc1nn2c(=O)cc(COC(=O)c3ccccc3NC(=O)COc3ccccc3C)nc2s1 .
A: inactive

Q: Give a short answer stating reported Potency for CCc1ccc(NC(=O)COC(=O)c2cccs2)cc1 .
A: inactive
